experiment: water solubility
Some compounds, each annotated with its measured solubility.

STRUCTURE SMILES | solubility
CCC[C@@H]1CC(=O)N([C@@H](CC)C(N)=O)C1 | > 500 mg/mL

Attention now turns to another entry.
# input What value of solubility has been recorded for this entry: CC[C@@H](C(N)=O)N1C[C@H](C=C(F)F)CC1=O
# output > 500 mg/mL

The origin of these recorded values is patent US8460712B2.
